# Assay Text: qHTS for inhibitors of Vif-A3G interactions: Cherry picks; further: nearly all actives have a fitted effect of over 80% in size; further: potency means the concentration at half of the fitted maximal effect
# Stated Conditions: HeLa A3G-eYFP + Vif (tagged APOBEC3G with the HIV-1 protein that degrades it), 24 h; eYFP fluorescence increase; series mostly up to 36.9 µM
The whole screen tested about 2,100 compounds, of which about 650 (31%) were called active. Inconclusive results (about 16%) are left out. This is one part of the list.
Parameter Measured: Potency

Compound: COc1ccc(/C=N/NC(=O)c2cc(OC)c(OC)c(OC)c2)cc1CN1CCc2cc(OC)c(OC)cc2C1C (stereo not given)
Parameter Measured: Potency
Result: inactive
//
Compound: Cc1cc(NC(=O)c2ccco2)cc(-c2nc3cc(Cl)ccc3o2)c1O
Parameter Measured: Potency
Result: 18.4 µM (active)
//
Compound: COc1cc(CNCCSc2nnnn2C)ccc1OCc1c(F)cccc1Cl
Parameter Measured: Potency
Result: inactive
//
Compound: NC(=S)N/N=C/c1ccccc1OC(=O)/C=C/c1ccccc1
Parameter Measured: Potency
Result: inactive
//
Compound: O=C(CC1CC2CCC1C2)Nc1nc(-c2ccccn2)cs1 (stereo not given)
Parameter Measured: Potency
Result: inactive

Exercise: Given O=c1c(O)c(-c2cccs2)oc2ccccc12 , state its recorded Potency.
Key: 2.59 µM (active)

Exercise: Given CCc1ccc(C(=O)NC(=S)Nc2ccc(N3CCOCC3)cc2)cc1 , state its recorded Potency.
Key: inactive

Exercise: Given O=C(N/N=C/C=C/c1ccco1)c1ccncc1 , state its recorded Potency.
Key: inactive

Exercise: Given CCOC(=O)C(=Cc1ccc(-n2cncn2)cc1)C(=O)OCC , state its recorded Potency.
Key: inactive

Exercise: Given CC(OC(=O)/C(C#N)=C/c1ccc(N(C)C)cc1)C(=O)N(C)Cc1ccccc1 (stereo not given) , state its recorded Potency.
Key: 18.4 µM (active)

Exercise: Given COC(=O)C1C2CC3c4[nH]c5cc(OC)ccc5c4CCN3CC2CC(OC2CCCCO2)C1OC (stereo not given) , state its recorded Potency.
Key: 20.6 µM (active)

Exercise: Given Cn1c(=O)[nH]c(=O)c2c1nc(Br)n2Cc1cccc(Br)c1 , state its recorded Potency.
Key: inactive

Exercise: Given CC(C)CCNC(=O)c1ccc2c(c1)NC(=O)C(CS(=O)(=O)Cc1cccc(Br)c1)N2 (stereo not given) , state its recorded Potency.
Key: inactive

Exercise: Given CC[n+]1c(/C=C/Nc2ccccc2)oc2ccccc21 , state its recorded Potency.
Key: 14.6 µM (active)

Exercise: Given Cc1ccc2oc(/N=C(\N)NC(=O)C(C)(C)C)nc2c1 , state its recorded Potency.
Key: inactive
